# Test system: HEK-293T
# Method notes: Multiplex assay against HEK293T
# Format: toxicity, cell-based
# Test settings: human, 12 h, 1 µM, compound concentration 1 uM, replicate 1
Outcome measure: Population Membrane Permeable-Phenotype (%)
One number for each entry, in %.

| Compound | Target | Measured |
| --- | --- | --- |
| CN1CCN(CCOc2cc(OC3CCOCC3)c3c(Nc4c(Cl)ccc5c4OCO5)ncnc3c2)CC1 | HEK-293T | 2 |
| CN(C)CC#Cc1ccc(OCCCc2sc(N3CCc4cccc(C(=O)Nc5nc6ccccc6s5)c4C3)nc2C(=O)O)c(F)c1 | HEK-293T | 2 |
| Cc1c(-c2ccc(O)cc2)n(Cc2ccc(OCCN3CCCCCC3)cc2)c2ccc(O)cc12 | HEK-293T | 0 |
| CN1CCN(c2ccc(OC(F)(F)F)c(Nc3ncc4c(n3)-c3c(c(C(N)=O)nn3CCO)CC4)c2)CC1 | HEK-293T | 6 |
| Cn1cc(-c2[nH]c3cc(NC(=O)[C@H](N)C4CCCCC4)cc4c3c2C=NNC4=O)cn1 | HEK-293T | 10 |
| CC(C)NCC(O)COc1ccc(CCOCC2CC2)cc1.Cl (stereo not drawn) [BETAXOLOL HYDROCHLORIDE] | HEK-293T | 3 |
| Cc1nc(-c2cn3c(n2)-c2ccc(-c4cnn(C(C)(C)C(N)=O)c4)cc2OCC3)n(C(C)C)n1 | HEK-293T | 4 |

Short answer for CC(C)C(=O)Nc1n[nH]c2cc(-c3cccc(NS(=O)(=O)C4CC4)c3)ccc12 : Population Membrane Permeable-Phenotype (%) was 4
